src = patent US20250270343A1

# experimental.system: T1, full-length untagged human GPNMB expressed on cells (human, UniProt Q14956 23-572)
# T1 sequence: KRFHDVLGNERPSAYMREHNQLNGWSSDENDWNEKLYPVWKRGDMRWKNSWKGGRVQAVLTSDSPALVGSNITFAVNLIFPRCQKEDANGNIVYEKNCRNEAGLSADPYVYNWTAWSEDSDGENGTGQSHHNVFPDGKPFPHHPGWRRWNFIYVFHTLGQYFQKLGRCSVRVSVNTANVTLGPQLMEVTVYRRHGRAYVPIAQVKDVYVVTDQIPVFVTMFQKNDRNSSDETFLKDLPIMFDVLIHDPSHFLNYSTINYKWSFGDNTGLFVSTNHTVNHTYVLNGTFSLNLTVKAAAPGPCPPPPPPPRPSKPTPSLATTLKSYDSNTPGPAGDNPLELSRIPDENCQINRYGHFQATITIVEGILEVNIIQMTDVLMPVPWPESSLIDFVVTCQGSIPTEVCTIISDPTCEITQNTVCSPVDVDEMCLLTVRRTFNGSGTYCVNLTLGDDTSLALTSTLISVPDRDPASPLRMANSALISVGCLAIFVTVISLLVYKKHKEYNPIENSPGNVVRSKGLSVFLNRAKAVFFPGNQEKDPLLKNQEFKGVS
# measurement.protocol: cell-based or functional assay
Quick reference for Fold Increase GCase (max response at 1 µg/ml) among some binders
Reply with just the number (in fold).

Field: example entries. Status: answers known.
{"binder": "anti-GPNMB antibody GPN-86 (antibody, V domains shown) VH: QVQLQESGPGLVKPSETLSLTCTVSGISITTGNYRWSWIRQPPGKGLEWIGYIDYSGTITYNPSLKSRVTITRDTSKNQFSLELSSVTAADTAVYYCARDLTHWYFDVWGQGTLVTVSS VL: DIVMTQSPDSLAVSLGERATINCKSSRSVDYYGIGFLNWYQQKPGQPPKLLIYATSKQGSGVPDRFSGSGSGTDFTLTISSLQAEDVAVYYCQQQKEVPPTFGGGTKVEIK", "measured": 1.34}
{"binder": "anti-GPNMB antibody GPN-98 (antibody, V domains shown) VH: QVQLVQSGAEVKKPGASVKVSCKASGYTFTSYWMHWVRQAPGQGLEWMGEINPYDQRTNYAQKFQGRVTMTVDKSTSTVYMELSSLRSEDTAVYYCARSTGNYAWFAYWGQGTLVTVSS VL: DIVMTQSPDSLAVSLGERATINCKASQDVSPSLAWYQQKPGQPPKLLIYSASYRYTGVPDRFSGSGSGTDFTLTISSLQAEDVAVYYCQQHYSIPLTFGGGTKVEIK", "measured": 1.39}

We now examine a further binder.
Param item = anti-GPNMB antibody GPN-89 (antibody, V domains shown) VH: QVQLQESGPGLVKPSETLSLTCTVSGISITTGNYRWSWIRQPPGKGLEWIGYIDYSGTITYNPSLKSRVTITRDTSKNQFSLELSSVTAADTAVYYCARDLTHWYYDVWGQGTLVTVSS VL: DIVMTQSPDSLAVSLGERATINCKSSRSVDYYGIGFLNWYQQKPGQPPKLLIYATSHQGSGVPDRFSGSGSGTDFTLTISSLQAEDVAVYYCQQQKEVPPTFGGGTKVEIK ; retrieve measured Fold Increase GCase (max response at 1 µg/ml).
1.35
